Reported AUC is given for each of the following compounds.
- test: AUC in iv dosed human measured under phase 1 trial
- Assay type: ADME, organism-based
- condition_summary: in vivo
result_type: AUC (ng·h/mL)

chemical_string=Cc1[nH]c2ccccc2c1CCNCc1ccc(/C=C/C(=O)NO)cc1 recorded_measurement=605
chemical_string=O=C(/C=C/c1cccc(S(=O)(=O)Nc2ccccc2)c1)NO recorded_measurement=9990
chemical_string=O=C(/C=C/c1ccc(CN(CCO)CCc2c[nH]c3ccccc23)cc1)NO recorded_measurement=2310

---

- assayed_target: Histone deacetylase 5 (Homo sapiens, UniProt Q9UQL6)
- Sequence (Q9UQL6 whole entry): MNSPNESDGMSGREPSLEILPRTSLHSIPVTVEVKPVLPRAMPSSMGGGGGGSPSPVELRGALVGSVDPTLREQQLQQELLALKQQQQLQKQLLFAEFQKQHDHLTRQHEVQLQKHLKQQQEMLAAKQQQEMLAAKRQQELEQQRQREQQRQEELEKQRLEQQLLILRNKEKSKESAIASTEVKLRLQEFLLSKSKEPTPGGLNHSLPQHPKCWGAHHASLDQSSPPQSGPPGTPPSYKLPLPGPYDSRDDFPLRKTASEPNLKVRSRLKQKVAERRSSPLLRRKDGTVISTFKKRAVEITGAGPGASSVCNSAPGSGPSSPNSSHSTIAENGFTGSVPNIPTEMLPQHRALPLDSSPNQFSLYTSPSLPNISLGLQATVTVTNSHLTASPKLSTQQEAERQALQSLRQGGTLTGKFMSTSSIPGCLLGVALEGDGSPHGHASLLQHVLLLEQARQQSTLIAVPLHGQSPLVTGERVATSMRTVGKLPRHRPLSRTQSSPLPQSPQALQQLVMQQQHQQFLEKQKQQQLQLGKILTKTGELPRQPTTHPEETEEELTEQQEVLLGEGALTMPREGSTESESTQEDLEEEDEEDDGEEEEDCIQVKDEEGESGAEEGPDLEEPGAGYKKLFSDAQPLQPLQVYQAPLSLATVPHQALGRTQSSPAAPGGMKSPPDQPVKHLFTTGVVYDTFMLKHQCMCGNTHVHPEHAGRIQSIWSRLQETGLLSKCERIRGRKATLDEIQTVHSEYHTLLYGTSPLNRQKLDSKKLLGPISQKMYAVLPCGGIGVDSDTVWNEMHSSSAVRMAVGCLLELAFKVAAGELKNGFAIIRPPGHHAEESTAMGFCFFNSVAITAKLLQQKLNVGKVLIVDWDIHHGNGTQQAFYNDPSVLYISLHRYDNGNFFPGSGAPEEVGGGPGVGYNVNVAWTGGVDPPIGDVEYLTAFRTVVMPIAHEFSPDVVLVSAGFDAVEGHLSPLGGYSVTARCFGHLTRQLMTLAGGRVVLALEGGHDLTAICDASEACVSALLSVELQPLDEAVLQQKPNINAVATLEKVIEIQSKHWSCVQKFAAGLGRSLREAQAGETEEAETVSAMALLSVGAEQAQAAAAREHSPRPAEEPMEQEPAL
result_type: Ki

chemical_string=O=C(CCCCCCC(=O)Nc1ccc([C@H]2O[C@@H](CSc3nc(-c4ccccc4)c(-c4ccccc4)o3)C[C@@H](c3ccc(CO)cc3)O2)cc1)NO recorded_measurement="1920 nM"

---

- assayed_target: UniProtKB Q9UBN7
- Sequence (Q9UBN7 whole entry): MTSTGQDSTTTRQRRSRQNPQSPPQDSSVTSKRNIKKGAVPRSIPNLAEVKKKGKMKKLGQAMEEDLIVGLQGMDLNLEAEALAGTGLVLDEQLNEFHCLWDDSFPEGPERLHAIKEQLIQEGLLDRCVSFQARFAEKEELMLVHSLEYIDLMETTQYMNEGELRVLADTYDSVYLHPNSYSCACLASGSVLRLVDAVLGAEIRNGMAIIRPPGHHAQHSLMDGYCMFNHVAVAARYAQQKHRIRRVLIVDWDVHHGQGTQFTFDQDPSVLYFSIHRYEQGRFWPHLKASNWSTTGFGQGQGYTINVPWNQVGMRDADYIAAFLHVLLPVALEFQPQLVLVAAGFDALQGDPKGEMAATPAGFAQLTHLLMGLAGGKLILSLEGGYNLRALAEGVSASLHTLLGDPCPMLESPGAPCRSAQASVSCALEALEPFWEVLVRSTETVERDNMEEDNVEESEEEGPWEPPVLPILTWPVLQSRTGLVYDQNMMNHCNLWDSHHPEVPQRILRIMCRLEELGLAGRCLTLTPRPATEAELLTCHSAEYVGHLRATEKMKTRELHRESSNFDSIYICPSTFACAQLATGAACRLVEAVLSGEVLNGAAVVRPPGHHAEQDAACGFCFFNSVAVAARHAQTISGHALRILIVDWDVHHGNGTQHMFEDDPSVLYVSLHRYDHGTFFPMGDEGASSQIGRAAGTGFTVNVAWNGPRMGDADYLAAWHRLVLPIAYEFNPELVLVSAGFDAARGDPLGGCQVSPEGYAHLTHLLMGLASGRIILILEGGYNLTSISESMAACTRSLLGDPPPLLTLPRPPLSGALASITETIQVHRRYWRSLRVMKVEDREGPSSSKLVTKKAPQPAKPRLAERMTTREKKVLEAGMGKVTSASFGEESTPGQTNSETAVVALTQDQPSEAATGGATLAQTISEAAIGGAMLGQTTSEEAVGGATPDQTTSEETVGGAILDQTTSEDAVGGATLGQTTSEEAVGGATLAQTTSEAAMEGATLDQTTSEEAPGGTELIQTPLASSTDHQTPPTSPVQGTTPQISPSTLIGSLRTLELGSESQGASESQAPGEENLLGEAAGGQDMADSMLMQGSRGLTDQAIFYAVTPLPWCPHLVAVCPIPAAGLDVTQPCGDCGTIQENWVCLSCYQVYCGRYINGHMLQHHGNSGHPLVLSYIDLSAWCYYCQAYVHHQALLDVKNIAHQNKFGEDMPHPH
result_type: Ki

chemical_string=O=C(/C=C/C#Cc1cccc(NS(=O)(=O)c2ccccc2)c1)NO recorded_measurement="136 nM"

---

- test: Half-life in iv dosed human measured under phase 1 trial
- Format: ADME, organism-based
- condition_summary: in vivo
Reported half-life is given for each of the following molecules.
result_type: half-life (h)

chemical_string=Cc1[nH]c2ccccc2c1CCNCc1ccc(/C=C/C(=O)NO)cc1 unit_annotation=h recorded_measurement=16
chemical_string=O=C(/C=C/c1ccc(CN(CCO)CCc2c[nH]c3ccccc23)cc1)NO unit_annotation=h recorded_measurement=8.29
chemical_string=O=C(/C=C/c1cccc(S(=O)(=O)Nc2ccccc2)c1)NO unit_annotation=h recorded_measurement=0.69

---

- test: Half-life in po dosed human measured under phase 1 trial
- Assay type: ADME, organism-based
- condition_summary: in vivo
result_type: half-life

chemical_string=Cc1[nH]c2ccccc2c1CCNCc1ccc(/C=C/C(=O)NO)cc1 recorded_measurement="12.8 h"
chemical_string=O=C(/C=C/c1cccc(S(=O)(=O)Nc2ccccc2)c1)NO recorded_measurement="1.5 h"
chemical_string=CCN(CC)Cc1ccc2cc(COC(=O)Nc3ccc(C(=O)NO)cc3)ccc2c1 recorded_measurement="6 h"

---

- test: Cmax in po dosed human measured under phase 2 trial
- Format: ADME, organism-based
- Parameters: route oral
- condition_summary: in vivo
result_type: Cmax (nM)

chemical_string=Cc1[nH]c2ccccc2c1CCNCc1ccc(/C=C/C(=O)NO)cc1 recorded_measurement=191

---

- test: Tmax in iv dosed human measured under phase 1/2 trial
- Assay type: ADME, organism-based
- condition_summary: in vivo
result_type: Tmax (min)

compound="O=C(/C=C/c1cccc(S(=O)(=O)Nc2ccccc2)c1)NO [BELINOSTAT]" result_type=Tmax unit_annotation=min recorded_measurement=27

---

- assayed_target: Histone deacetylase 9 (Homo sapiens, UniProt Q9UKV0)
- Sequence (Q9UKV0 whole entry): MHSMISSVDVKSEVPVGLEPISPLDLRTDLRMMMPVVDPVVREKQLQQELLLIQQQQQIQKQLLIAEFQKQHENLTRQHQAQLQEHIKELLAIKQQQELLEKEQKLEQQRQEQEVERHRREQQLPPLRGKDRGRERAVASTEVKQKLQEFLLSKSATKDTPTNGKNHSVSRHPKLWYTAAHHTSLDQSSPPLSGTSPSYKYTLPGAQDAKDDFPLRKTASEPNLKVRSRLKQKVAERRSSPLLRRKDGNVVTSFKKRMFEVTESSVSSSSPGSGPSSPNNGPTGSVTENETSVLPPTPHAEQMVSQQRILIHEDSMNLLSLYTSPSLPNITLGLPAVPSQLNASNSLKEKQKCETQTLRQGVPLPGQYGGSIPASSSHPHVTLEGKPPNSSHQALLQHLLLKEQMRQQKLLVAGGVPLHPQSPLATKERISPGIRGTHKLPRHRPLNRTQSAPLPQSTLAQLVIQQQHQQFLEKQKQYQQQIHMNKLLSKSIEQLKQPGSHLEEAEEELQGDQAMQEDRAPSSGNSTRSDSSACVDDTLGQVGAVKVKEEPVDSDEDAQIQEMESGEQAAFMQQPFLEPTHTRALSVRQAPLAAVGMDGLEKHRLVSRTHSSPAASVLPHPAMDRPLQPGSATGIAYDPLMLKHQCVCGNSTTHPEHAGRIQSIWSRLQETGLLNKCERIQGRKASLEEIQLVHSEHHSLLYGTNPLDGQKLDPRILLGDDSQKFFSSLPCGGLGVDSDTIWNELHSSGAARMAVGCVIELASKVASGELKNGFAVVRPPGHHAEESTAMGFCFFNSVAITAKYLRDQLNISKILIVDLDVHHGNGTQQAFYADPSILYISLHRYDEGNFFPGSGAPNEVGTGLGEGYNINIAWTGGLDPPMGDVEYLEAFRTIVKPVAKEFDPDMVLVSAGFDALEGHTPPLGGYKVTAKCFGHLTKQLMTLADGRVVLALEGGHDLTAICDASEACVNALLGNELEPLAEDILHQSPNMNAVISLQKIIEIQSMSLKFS
pKi: −log10 of the molar value.
result_type: pKi

chemical_string=Cn1cc(CNCC2CCN(c3ncc(C(=O)NO)cn3)CC2)c2ccccc21 recorded_measurement=8.42

---

- test: Half-life in po dosed human measured under phase 2 trial
- Type: ADME, organism-based
- condition_summary: in vivo
result_type: half-life (h)

chemical_string=Cc1[nH]c2ccccc2c1CCNCc1ccc(/C=C/C(=O)NO)cc1 recorded_measurement=15

---

Reported AUC is given for each of the following molecules.
- test: AUC in po dosed human measured under phase 1 trial
- Type: ADME, organism-based
- condition_summary: in vivo
result_type: AUC (µg·h/mL)

molecule="Cn1cc(CNCC2CCN(c3ncc(C(=O)NO)cn3)CC2)c2ccccc21 [QUISINOSTAT]" result_type=AUC recorded_measurement=0.00977
molecule="O=C(/C=C/c1cccc(S(=O)(=O)Nc2ccccc2)c1)NO [BELINOSTAT]" result_type=AUC recorded_measurement=2.69
molecule="CCN(CC)Cc1ccc2cc(COC(=O)Nc3ccc(C(=O)NO)cc3)ccc2c1 [GIVINOSTAT]" result_type=AUC recorded_measurement=0.671
molecule="Cc1[nH]c2ccccc2c1CCNCc1ccc(/C=C/C(=O)NO)cc1 [PANOBINOSTAT]" result_type=AUC recorded_measurement=0.0913
molecule="CCCCc1nc2cc(/C=C/C(=O)NO)ccc2n1CCN(CC)CC [PRACINOSTAT]" result_type=AUC recorded_measurement=1.03

---

- assayed_target: Histone deacetylase 11 (Homo sapiens)
- Sequence (Q96DB2 whole entry): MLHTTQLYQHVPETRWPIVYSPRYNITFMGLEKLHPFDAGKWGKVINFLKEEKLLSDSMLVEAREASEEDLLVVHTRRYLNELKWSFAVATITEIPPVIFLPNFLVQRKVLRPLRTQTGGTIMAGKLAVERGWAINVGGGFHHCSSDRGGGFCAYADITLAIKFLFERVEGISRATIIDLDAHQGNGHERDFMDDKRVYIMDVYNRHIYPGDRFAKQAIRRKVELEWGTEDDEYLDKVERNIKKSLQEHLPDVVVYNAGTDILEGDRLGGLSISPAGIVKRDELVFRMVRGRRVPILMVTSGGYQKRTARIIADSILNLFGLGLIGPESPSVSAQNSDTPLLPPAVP
result_type: Ki (nM)

compound="CCCCc1nc2cc(/C=C/C(=O)NO)ccc2n1CCN(CC)CC [PRACINOSTAT]" result_type=Ki unit_annotation=nM recorded_measurement=43

---

- test: Tmax in po dosed human measured under phase 2 trial
- Type: ADME, organism-based
- condition_summary: in vivo
result_type: Tmax (h)

compound="Cc1[nH]c2ccccc2c1CCNCc1ccc(/C=C/C(=O)NO)cc1 [PANOBINOSTAT]" result_type=Tmax recorded_measurement=1

---

- assayed_target: Histone deacetylase 3 (Homo sapiens, UniProt O15379)
- Sequence (O15379 whole entry): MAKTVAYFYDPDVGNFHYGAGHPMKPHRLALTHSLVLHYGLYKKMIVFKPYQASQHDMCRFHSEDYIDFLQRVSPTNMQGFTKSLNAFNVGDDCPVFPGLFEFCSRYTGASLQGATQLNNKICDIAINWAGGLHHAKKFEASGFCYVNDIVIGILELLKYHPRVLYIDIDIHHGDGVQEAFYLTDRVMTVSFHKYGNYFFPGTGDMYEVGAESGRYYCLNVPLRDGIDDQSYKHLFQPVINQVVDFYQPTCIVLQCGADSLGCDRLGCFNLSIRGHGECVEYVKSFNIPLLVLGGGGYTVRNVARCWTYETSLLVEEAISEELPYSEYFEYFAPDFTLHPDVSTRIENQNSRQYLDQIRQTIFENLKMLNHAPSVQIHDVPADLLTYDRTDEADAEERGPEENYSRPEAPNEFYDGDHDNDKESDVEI
pKi: −log10 of the molar value.
result_type: pKi

compound="O=C(/C=C/C#Cc1cccc(NS(=O)(=O)c2ccccc2)c1)NO [OXAMFLATIN]" result_type=pKi recorded_measurement=8.57

---

- Tested on: Trypanosoma brucei brucei
- test: Antitrypanosomal activity against Trypanosoma brucei brucei 427 assessed as inhibition of parasite proliferation measured as ATP levels after 48 hrs by luciferase-based assay
- Type: functional, organism-based
- condition_summary: Trypanosoma brucei, 427, 48 h
pEC50: −log10 of the molar value.
result_type: pEC50

chemical_string=CC(/C=C/C(=O)NO)=C\[C@@H](C)C(=O)c1ccc(N(C)C)cc1 result_type=pEC50 recorded_measurement=5.30
chemical_string=CCCCc1nc2cc(/C=C/C(=O)NO)ccc2n1CCN(CC)CC result_type=pEC50 recorded_measurement=5.02
chemical_string=Cc1[nH]c2ccccc2c1CCNCc1ccc(/C=C/C(=O)NO)cc1 result_type=pEC50 recorded_measurement=5.80
chemical_string=CCN(CC)Cc1ccc2cc(COC(=O)Nc3ccc(C(=O)NO)cc3)ccc2c1 result_type=pEC50 recorded_measurement=4.96
chemical_string=O=C(/C=C/c1cccc(S(=O)(=O)Nc2ccccc2)c1)NO result_type=pEC50 recorded_measurement=5.67
chemical_string=CC(C)(CCc1ccccc1)C(=O)Nc1ccc(C(=O)NO)cc1 result_type=pEC50 recorded_measurement=5.18
chemical_string=O=C(CCCCCCC(=O)Nc1ccc([C@H]2O[C@@H](CSc3nc(-c4ccccc4)c(-c4ccccc4)o3)C[C@@H](c3ccc(CO)cc3)O2)cc1)NO result_type=pEC50 recorded_measurement=5.47
chemical_string=CN1CCc2c(c3ccccc3n2Cc2ccc(C(=O)NO)cc2)C1 result_type=pEC50 recorded_measurement=5.56
chemical_string=O=C(Nc1ccccc1-c1cn2c(CN3CCNCC3)csc2n1)c1cnc2ccccc2n1 result_type=pEC50 recorded_measurement=6.05
